B1: PLAGL1 (parent)
chain: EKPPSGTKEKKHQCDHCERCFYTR

variants of: B1; assay: protein stability index of a GFP-peptide fusion (GPS, HEK-293T) (PSI 1-6); higher = more stable; settings: c terminus: a fixed tail appended;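 note: lentivirally expressed fusions sorted by FACS into six bins by GFP to DsRed ratio, PSI derived from sequencing read proportions per bin multiplied by bin number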
Class assignment keyed on protein stability index, ranges 1 (below 3), 2 (3 to below 4), 3 (4 or more)

INPUT: Which class is correct for the following variant? K2G
OUTPUT: 2

INPUT: Given F21N , name the class its protein stability index places it in.
OUTPUT: 3

INPUT: Dear colleague, I would appreciate it if you could identify the bin for P4C and reply at your convenience.
OUTPUT: 2

INPUT: # bin lookup: classify C20A by its protein stability index
OUTPUT: 1

INPUT: Form field 'band' for G6A
OUTPUT: 2

INPUT: Any idea which band K11D is in?
OUTPUT: 3

INPUT: Which category fits this record: F21H
OUTPUT: 2

INPUT: Which protein stability index category applies to Q13S here?
OUTPUT: 2

INPUT: Where would P3G land among the classes by reported protein stability index?
OUTPUT: 2

INPUT: Quick check: band for T23C
OUTPUT: 3

INPUT: Quick check: band for E9R
OUTPUT: 1

INPUT: Hi there! Could you help me figure out the category for G6Q please?
OUTPUT: 2

INPUT: For the record H12C , report the class its protein stability index corresponds to.
OUTPUT: 3

INPUT: # bin lookup: classify E1P by its protein stability index
OUTPUT: 2

INPUT: Could you place C20D in its proper category? Many thanks.
OUTPUT: 1

INPUT: Band assignment needed for T23W please.
OUTPUT: 3

Where these numbers come from: the supplement of paper PMC10567573
